# assay overview: recombinant barcode read abundance after kanamycin selection (control-corrected) (log10(CPM+1)); higher = more efficient recombination; sequences stand for … in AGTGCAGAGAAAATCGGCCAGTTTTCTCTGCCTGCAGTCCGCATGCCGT…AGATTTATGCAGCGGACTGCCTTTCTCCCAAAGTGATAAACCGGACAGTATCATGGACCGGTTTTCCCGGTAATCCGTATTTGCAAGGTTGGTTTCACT; site = the 11-nt target
recorded metric: recombinant barcode read abundance (log10)
The answer should be written as a number, with no unit following it.

Task: Any idea what recombinant barcode read abundance (log10) was measured for GAGTGTCCTTGGGTTCTAACCTGTTGCGA (site GTGTCTCCTTC) ?
Output: 0.0874

Task: Suppose we examine the sequence CTGCTCCCTTGGGTTCTAACCTGTTGCGG (site CTGCTCCCTCC) ; what recombinant barcode read abundance (log10) value has been reported?
Output: 0.36

Task: Which value of recombinant barcode read abundance (log10) has been reported for CGCGCCACTTGGGTTCTAACCTGTTGCCT (site TAGCAGTCTGC) in the records?
Output: 0.188

Task: Endpoint output: recombinant barcode read abundance (log10) of GTAACCGCTTGGGTTCTAACCTGTTGCCT (site GTTACCGCTAG) . Value?
Output: 0.432

Task: Quick check: recombinant barcode read abundance (log10) of ACATAGACTTGGGTTCTAACCTGTTGCGC (site ACACAGACTGC) ?
Output: 0.858

====

# assay overview: recombinant UMI read abundance after kanamycin selection (control-corrected) (log10(CPM+1)); higher = more efficient recombination; extreme values may be limits of the assay; sequences stand for … in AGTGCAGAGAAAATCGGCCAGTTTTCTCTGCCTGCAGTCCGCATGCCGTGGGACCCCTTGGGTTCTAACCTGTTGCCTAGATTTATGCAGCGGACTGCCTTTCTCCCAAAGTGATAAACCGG…AGGTTGGTTTCACT; site = the 11-nt donor
Here the recorded recombinant UMI read abundance (log10) is given for each entry.
Response field accepts a number only; no unit should be typed.

Task: Dear colleague, I am looking for the recorded recombinant UMI read abundance (log10) of the following sequence: GACAAACCATGGACCGGTTTTCCCGGTAATCCGTATTTGGC (site GACAAACCTGC)
Output: 0

Others:
Task: // recombinant UMI read abundance (log10) lookup, key: CTCTGCACATGGACCGGTTTTCCCGGTAATCCGTATTTGCT (site CTCTCCACTAG)
Output: 0.00325

Task: Please give the measured recombinant UMI read abundance (log10) for this sequence: ACTGTGTCATGGACCGGTTTTCCCGGTAATCCGTATTTGAC (site ATTGTGTCTGT)
Output: 0

Task: Would you mind telling me what recombinant UMI read abundance (log10) value was observed for GGTAATCCATGGACCGGTTTTCCCGGTAATCCGTATTTGAA (site GGGAATCCTTT) ?
Output: 0.00622

Task: Name the reported recombinant UMI read abundance (log10) value associated with the sequence GTAGATTCATGGACCGGTTTTCCCGGTAATCCGTATTTGTT (site GAAGATTCTAA)
Output: 0.559

====

# assay overview: recombinant UMI read abundance after kanamycin selection (control-corrected) (log10(CPM+1)); higher = more efficient recombination; extreme values may be limits of the assay; sequences stand for … in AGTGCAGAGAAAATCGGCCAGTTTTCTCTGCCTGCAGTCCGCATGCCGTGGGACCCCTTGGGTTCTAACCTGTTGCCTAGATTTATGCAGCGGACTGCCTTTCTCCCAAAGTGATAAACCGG…AGGTTGGTTTCACT; site = the 11-nt donor
Quick list: recombinant UMI read abundance (log10) per entry.

Below: 5 sequences and their reported recombinant UMI read abundance (log10).
Task: Endpoint output: recombinant UMI read abundance (log10) of ACACAAACATGGACCGGTTTTCCCGGTAATCCGTATTTGTC (site ACACTAACTGA) . Value?
Output: 0

Task: Fill blank: measured recombinant UMI read abundance (log10) of the sequence GCGGCTACATGGACCGGTTTTCCCGGTAATCCGTATTTGTC (site GCGGCTACTGA) is ____.
Output: 2.67

Task: # lookup: recombinant UMI read abundance (log10) of GTGAAAACATGGACCGGTTTTCCCGGTAATCCGTATTTGCT (site GCGAAAACTAG)
Output: 0

Task: Dear colleague, I am looking for the recorded recombinant UMI read abundance (log10) of the following sequence: CGGAAGCCATGGACCGGTTTTCCCGGTAATCCGTATTTGTT (site CGGAACCCTAA)
Output: 0.00486

Task: What value of recombinant UMI read abundance (log10) has been reported for the following sequence? CGGCATCCATGGACCGGTTTTCCCGGTAATCCGTATTTGTC (site CGGCATCCTGA)
Output: 0

Next:
Task: Item GAAGATTCATGGACCGGTTTTCCCGGTAATCCGTATTTGTT (site GAAGATTCTTA) has what recorded recombinant UMI read abundance (log10)?
Output: 1.2

Task: Requested field: recombinant UMI read abundance (log10). Item: ATTCTTACATGGACCGGTTTTCCCGGTAATCCGTATTTGGT (site ATTCTTACTAC)
Output: 0.37

Task: Reported recombinant UMI read abundance (log10) for CGATGATCATGGACCGGTTTTCCCGGTAATCCGTATTTGAG (site CGATGATCTCT) : what is it?
Output: 3.16

Task: Given the entry ATGCACGCATGGACCGGTTTTCCCGGTAATCCGTATTTGGG (site ACGCACGCTCC) , report its measured recombinant UMI read abundance (log10).
Output: 0.0179

====

# assay overview: recombinant UMI read abundance after kanamycin selection (control-corrected) (log10(CPM+1)); higher = more efficient recombination; extreme values may be limits of the assay; sequences stand for … in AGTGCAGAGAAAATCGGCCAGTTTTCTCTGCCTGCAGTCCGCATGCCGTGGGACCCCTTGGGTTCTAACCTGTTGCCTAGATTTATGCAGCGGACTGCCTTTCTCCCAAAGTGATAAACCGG…AGGTTGGTTTCACT; site = the 11-nt donor
recorded metric: recombinant UMI read abundance (log10)
No unit in the answer, only the number.

Task: What value of recombinant UMI read abundance (log10) has been reported for the following sequence? TAGTCGACATGGACCGGTTTTCCCGGTAATCCGTATTTGGG (site GAGTCGACTCC)
Output: 0.0292

Task: Query: recombinant UMI read abundance (log10); subject: AATCTAACATGGACCGGTTTTCCCGGTAATCCGTATTTGCT (site AATTTAACTAG)
Output: 0

---
Task: Give its recombinant UMI read abundance (log10) value. Item: TGTACACCATGGACCGGTTTTCCCGGTAATCCGTATTTGTC (site TGTACACCTGG)
Output: 0

Task: Any idea what recombinant UMI read abundance (log10) was measured for CCAGTATCATGGACCGGTTTTCCCGGTAATCCGTATTTGCC (site CCAGTATCTGG) ?
Output: 1.44

Task: What value of recombinant UMI read abundance (log10) has been reported for the following sequence? CGGAAACCATGGACCGGTTTTCCCGGTAATCCGTATTTGTT (site CGGAATCCTAA)
Output: 0

====

# maps each entry to its recombinant UMI read abundance (log10)
# assay overview: recombinant UMI read abundance after kanamycin selection (control-corrected) (log10(CPM+1)); higher = more efficient recombination; extreme values may be limits of the assay; sequences stand for … in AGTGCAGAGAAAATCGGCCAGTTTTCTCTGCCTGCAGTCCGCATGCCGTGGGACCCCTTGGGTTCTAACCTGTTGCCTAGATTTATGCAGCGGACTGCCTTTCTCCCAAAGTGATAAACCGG…AGGTTGGTTTCACT; site = the 11-nt donor
I only need the number, thanks.

Record excerpt, results attached:
Task: Name the reported recombinant UMI read abundance (log10) value associated with the sequence GTTGTTGCATGGACCGGTTTTCCCGGTAATCCGTATTTGGT (site GTTGTTACTAC)
Output: 0.375

Task: Could you tell me which recombinant UMI read abundance (log10) is on file for GAGGAATCATGGACCGGTTTTCCCGGTAATCCGTATTTGCG (site AAGGAATCTCG) ?
Output: 2.23

Further cases:
Task: Could you share which recombinant UMI read abundance (log10) value was measured for GTTGTTGCATGGACCGGTTTTCCCGGTAATCCGTATTTGGT (site GTTGTTTCTAC) ?
Output: 0

Task: What measured recombinant UMI read abundance (log10) goes with CCGTTAACATGGACCGGTTTTCCCGGTAATCCGTATTTGTG (site CCGTTAACTCA) ?
Output: 0.0455

Task: Would you mind telling me what recombinant UMI read abundance (log10) value was observed for AGCCTTTCATGGACCGGTTTTCCCGGTAATCCGTATTTGCC (site AGCCTTTCTGG) ?
Output: 1.05

====

Measured recombinant UMI read abundance (log10) by item
# assay overview: recombinant UMI read abundance after kanamycin selection (control-corrected) (log10(CPM+1)); higher = more efficient recombination; extreme values may be limits of the assay; sequences stand for … in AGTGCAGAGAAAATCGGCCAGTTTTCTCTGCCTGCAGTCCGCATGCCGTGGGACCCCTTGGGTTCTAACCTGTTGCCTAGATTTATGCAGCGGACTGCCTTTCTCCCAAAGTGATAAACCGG…AGGTTGGTTTCACT; site = the 11-nt donor
Reply: number alone, nothing else.

Task: Consider the sequence GTCCCTACATGGACCGGTTTTCCCGGTAATCCGTATTTGAG (site ATCCCTACTCT) and give its measured recombinant UMI read abundance (log10).
Output: 0.0134

Task: Query (sequence): CGTTAAGCATGGACCGGTTTTCCCGGTAATCCGTATTTGGC (site CGTTAAGCTGC) ; field requested: recombinant UMI read abundance (log10)
Output: 1.73

Task: Report recombinant UMI read abundance (log10) for GTTCCAACATGGACCGGTTTTCCCGGTAATCCGTATTTGTA (site GCTCCAACTTA) please.
Output: 0.287

Task: Would you kindly share the measured recombinant UMI read abundance (log10) for GATGATTCATGGACCGGTTTTCCCGGTAATCCGTATTTGTT (site GAGGATTCTAA) ?
Output: 0

Task: Could you tell me which recombinant UMI read abundance (log10) is on file for TACTTGACATGGACCGGTTTTCCCGGTAATCCGTATTTGAT (site TACTTGACTAG) ?
Output: 0.00211

Task: Reported recombinant UMI read abundance (log10), sequence TCCCATTCATGGACCGGTTTTCCCGGTAATCCGTATTTGCC (site TCCAATTCTGG) : ____
Output: 0

Task: Item GGATCACCATGGACCGGTTTTCCCGGTAATCCGTATTTGCT (site CGATCATCTAG) has what recorded recombinant UMI read abundance (log10)?
Output: 0
